Value source: paper PMC3830934

Target: human DHFR (Homo sapiens, UniProt P00374)
Sequence (P00374 whole entry): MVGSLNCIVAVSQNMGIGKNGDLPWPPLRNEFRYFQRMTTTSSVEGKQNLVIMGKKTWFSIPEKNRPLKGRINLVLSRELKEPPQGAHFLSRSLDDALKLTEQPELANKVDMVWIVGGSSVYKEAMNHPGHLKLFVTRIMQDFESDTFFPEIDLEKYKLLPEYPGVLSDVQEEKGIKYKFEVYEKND
Property measured: pKi
Keep it numeric: pKi is minus log10 of the concentration in mol/L.

Ask | human DHFR (Homo sapiens, UniProt P00374) / pKi / CC1(C)N=C(N)N=C(N)N1OCCCOc1cc(Cl)c(Cl)cc1Cl : value?
Reply | 7.92
